# Test system: SNB-19 CNS
# Experiment notes: NCI-60 one-dose screen, 48 h (100 = growth as untreated, 0 = no growth, -100 = all killed)
# Cond: 10 µM unless noted
Compounds without any hit were thinned out: in the full panel of roughly 83,000, 20% have a hit.
Label TRUE when growth < 60%; otherwise FALSE.

| Compound | Discrete label |
| --- | --- |
| CCOC(=O)C1=C(c2ccccc2)N=C2N(c3ccccc3)N=C(C(C)=O)N2C1c1ccc(F)cc1 (centres undefined) | FALSE |
| COC12C=C/C(=C(/C(=O)OCCSc3ccnn3C)C(=O)CCCCCCCCC3(OC)C=C/C(=C(/C(=O)OCCSc4ccnn4C)C(=O)CCCCCCCC1)O3)O2 | TRUE |
| CNCC[C@H](Oc1cccc2ccccc12)c1cccs1 | FALSE |
| CCOC(=O)CNC1=C(Cl)C(=O)N(Cc2ccc(Cl)cc2)C1=O | FALSE |
| CN1CCN(c2ccc(NC3=CC(=O)c4ncncc4C3=O)cc2)CC1 | TRUE |
| CS(=O)(=O)Nc1cc(-c2ccc3ncnc(Nc4ccc(OCc5ccccn5)c(Cl)c4)c3c2)cnc1Cl | TRUE |
| Cc1[nH]c(C(=O)Nc2ccccc2OC2CCN(CCN3CCOCC3)CC2)c(Cl)c1Cl | FALSE |
| Cc1c(O)cc(-c2cnc(N/N=C/c3ccccc3)s2)c(O)c1C | FALSE |
| c1ccc(Cn2cc3c(c2-c2ccccc2)CCc2cnoc2-3)cc1 | FALSE |
| Cc1nn(-c2ccc([N+](=O)[O-])cc2)c2ncnc(N/N=C/c3ccccc3O)c12 | TRUE |
| NC(=O)c1ccccc1OCC(=O)Nc1ccc(Cl)c(Cl)c1 | FALSE |
| COc1ccc(/C=C/C(c2cc(OC)c(OC)c(OC)c2)n2cncn2)cc1O (centres undefined) | TRUE |
| Cc1ccc(-c2nc(SCC(=O)N3CCN(c4cc5c(cc4F)c(=O)c(C(=O)O)cn5C4CC4)CC3)nc(Cl)c2C#N)cc1 | FALSE |
| N#CSc1c[nH]c2ccc(/C=C/C(=O)/C=C(O)/C=C/c3ccc4[nH]cc(SC#N)c4c3)cc12 | TRUE |
| Cc1cc(O)c(=O)cc2c1C[C@H]1CC(C)(C)/C=C/C[C@]3(C)Oc4cc(=O)c(O)cc(C)c4C[C@H]3C[C@H](O)[C@@]1(C)O2 | TRUE |
| C(=C(\C1=NCCN1)n1ccc2ccccc21)/c1ccccc1 | FALSE |
| CNCCCNc1nc2ccccc2c2c(=O)c3cc(Cl)ccc3sc12 | TRUE |
| C=C(c1ccc(C(=O)O)c(F)c1)c1cc2c(cc1C)C(C)(C)CCC2(C)C | FALSE |
| COC(=O)[C@@]12CC=C(C)[C@]3(C[C@H](c4ccoc4)OC3=O)[C@H]1C=C[C@@H](O)[C@@]2(O)C(=O)OC | FALSE |
| [N-]=[N+]=NCC1OC(n2cnc3c(NC(=O)Nc4ccccc4)ncnc32)C2OC(=O)CC12 (centres undefined) | FALSE |
| Cc1c2ncccc2nc2[nH]c3ccc(OCCN(C)C)cc3c12 | TRUE |
| CCNC(=O)N1CCc2c(Br)c3c(c(OC)c2C1Cc1ccc(OC)cc1)OCO3 (centres undefined) | TRUE |
| O=C(NCCCCCCNC(=O)OCc1ccc2c(Cl)cc(Cl)c(O)c2n1)OCc1ccc2c(Cl)cc(Cl)c(O)c2n1 | TRUE |
| O=[N+]([O-])c1c(O)c(Cl)cc(Cl)c1Cl | FALSE |
| O=Nc1ccc(NC(=O)Nc2ccc([N+](=O)[O-])cc2)cc1 | FALSE |
| CCOC(=O)C/C(=N\Nc1cc(=O)[nH]c2ccc(OC)cc12)C(=O)OCC | FALSE |
| CCN(CC)c1ccc(-c2cc(-c3cc(OC)c(OC)c(OC)c3)nc(N3CCC(O)CC3)c2C#N)cc1 | TRUE |
| CCCCCCCCn1ccc2cc(NC(=O)CN=[N+]=[N-])ccc21 | FALSE |
| CCN(CC)CCOc1ccc2ccc(=O)oc2c1 | FALSE |
| COc1ccc(-c2cc(-c3cccnc3)nc3sc4c(N)c(C(C)=O)c(-c5ccccc5)nc4c23)cc1OC | FALSE |
| O=C(/C=C/c1ccccc1)c1ccc(-n2cc(CN3CCN(c4cc5c(cc4F)c(=O)c(C(=O)O)cn5C4CC4)CC3)nn2)cc1 | FALSE |
| COc1ccc(-c2cc(-c3cn(-c4cccc(Cl)c4)nc3-c3ccc(OC)cc3)on2)cc1 | FALSE |
| O=C(c1ccc(Br)cc1)C(Br)C(c1ccc(Cl)cc1)C(c1ccccc1)[N+](=O)[O-] (centres undefined) | FALSE |

Sourced from PubChem BioAssay (NCI)
